// data source = PubChem BioAssay AID449762

Would you mind telling me the reported inhibition of each entry?
experiment: M. tuberculosis growth inhibition, HTS (AID 449762);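 further: bacterial growth assessed after seven days of incubation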; settings: M. tuberculosis H37Rv growth inhibition, 7H9 media; at 25 µM; hits give high values
The campaign covered roughly 330,000 compounds. About 1,900 (0.58%) were called active. Not shown: some 4% with an inconclusive outcome. Only a sample is shown. Entries with a potency or affinity are not part of this list.

Example entries and their recorded answers appear below.
>  <Molecule>
CCOC(=O)CSC1=C(C#N)C(C)C2=C(CCCC2=O)N1 (stereo unspecified)

>  <inhibition>
10.6% (inactive)

$$$$
>  <Molecule>
O=C1Nc2ccccc2/C1=N\c1sc2c(c1C(=O)Nc1ccccc1)CCCC2

>  <inhibition>
-6.89% (inactive)

$$$$
>  <Molecule>
Cc1cc(Cn2nc(C(=O)NCc3cccc(Br)c3)cc2-c2ccccc2)on1

>  <inhibition>
25.4% (inactive)

$$$$

Could you report inhibition for every entry in the following list?
1. CC(C)CCN1CCN(CC(c2ccccc2)c2ccccc2)CC1CCO (stereo unspecified)
2. CC1CC1C(=O)OCC(=O)NC(=O)c1ccc(C(C)(C)C)cc1 (stereo unspecified)
3. COc1cc(NC(=O)Cc2ccc([N+](=O)[O-])cc2)c(C(=O)O)cc1OC
4. CC1=NN(C(N)=S)C(=O)C1N=Nc1ccc(S(N)(=O)=O)cc1 (stereo unspecified)
5. CCN(CC)S(=O)(=O)c1ccc(S(=O)(=O)Nc2c(C)nn(C)c2C)cc1
6. O=c1c2cnn(-c3ccccc3)c2ncn1Cc1cccc(Cl)c1

Data returned:
1. -4.44% (inactive)
2. 4.17% (inactive)
3. 20.1% (inactive)
4. 0.37% (inactive)
5. -5.92% (inactive)
6. 0.84% (inactive)

List the reported inhibition of each molecule below.
1. CCC1CCCCN1CCCNC(=O)CSc1nc2nc(C)c(Cc3ccccc3Cl)c(C)n2n1 (stereo unspecified)
2. Cc1ccc(N2C(=O)[C@@H]3Cc4ccccc4CN3C2=O)cc1

Data returned:
1. 4.72% (inactive)
2. 1.44% (inactive)

----------
assay: M. tuberculosis growth inhibition, HTS (AID 449762);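 further: bacterial growth assessed after seven days of incubation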; settings: M. tuberculosis H37Rv growth inhibition, 7H9 media; at 25 µM; hits give high values
Hit rate of the full screen: of about 330,000 compounds, about 1,900 (0.58%) were called active. Roughly 4% stayed inconclusive and do not appear here. Not all results are given here. Measured potencies and affinities stand elsewhere.
Readout Label: inhibition (%)
Give bare numbers, in %.

# example entries with known answers
>  <Compound>
C(=N\Nc1ccccn1)/c1ccc2c(c1)OCCO2

>  <inhibition [%]>
-4.47

$$$$
>  <Compound>
Cc1sc2nc(-c3ccc(Br)cc3)oc(=O)c2c1C

>  <inhibition [%]>
7.29

$$$$
>  <Compound>
Cc1cc(Cl)ccc1OCCCC(=O)NN

>  <inhibition [%]>
13.1

$$$$

Quick one: give me inhibition for each item below, same order please.
1. Cc1ccc(N2CC(C(=O)NC3=NCCS3)CC2=O)cc1 (configuration not stated)
2. O=C(Nc1ccc(OCC(F)(F)C(F)F)c(C(F)(F)F)c1)c1ccccc1
3. O=C(O)CCn1nnc(-c2ccccc2)n1
4. O=C(Cc1ccc([N+](=O)[O-])cc1)OCc1c(F)cccc1Cl
5. CC(=O)N(CC1CCCO1)c1nnc(-c2cnccn2)s1 (configuration not stated)
6. O=C(NC1CCCC1)c1ccccc1-c1ccccc1

Data returned:
4.82
3.85
-0.81
7.51
-7.32
64.1

Hi! Can you tell me inhibition for each of these compounds?
1. O=c1c(/C=N/OCc2ccc(Cl)cc2Cl)c[nH]n1-c1cccc(Cl)n1
2. Cc1cc(Cl)ccc1OCCCC(N)=O
3. COc1ccc(C(=O)Nc2ccc(OCC(F)(F)C(F)F)c(C(F)(F)F)c2)cc1OC

Data returned:
[34.5, -4.53, -1.87]
